Origin of measurements: ChEMBL document CHEMBL3098080

Attribute: inhibition
Molecular target: UniProt P29274
Test: Inhibition of adenosine A2A receptor (unknown origin) at 100 umol/L relative to control
A number alone suffices; assume %.

COC[C@H]1CCCN1c1cc(Nc2ncccn2)nc(-n2nc(C)cc2C)n1 :: 71

# return recorded inhibition for input Cc1cc(C)n(-c2nc(Nc3ncccn3)cc(N3CCc4ccccc4C3)n2)n1
-5

# return recorded inhibition for input Cc1cc(C)n(-c2nc(Nc3nccs3)cc(-n3cccn3)n2)n1
58

# return recorded inhibition for input COC[C@H]1CCCN1c1cc(NC(C)=O)nc(-n2nc(C)cc2C)n1
123

# return recorded inhibition for input COC[C@H]1CCCN1c1cc(Nc2cnccn2)nc(-n2nc(C)cc2C)n1
124

---

For Adenosine receptor A2a (Homo sapiens), measured Ki is reported for the entries below.
A number alone suffices; assume nM.

COCCOc1ccc(N2CCN(CCn3ncc4c3nc(N)n3nc(-c5ccco5)nc43)CC2)cc1 :: 1
COC[C@H]1CCCN1c1cc(Nc2ccccn2)nc(-n2nc(C)cc2C)n1 :: 45
Cc1cc(C)n(-c2nc(Nc3nccs3)cc(N3CCc4ccccc4C3)n2)n1 :: 66

Please examine the following record next.
Look up Adenosine receptor A2a (Homo sapiens) data: Ki of COC[C@H]1CCCN1c1cc(NC(C)=O)nc(-n2nc(C)cc2C)n1 , then report it.
15

---

Attribute: inhibition
Target: Adenosine receptor A2a (Homo sapiens)
Sequence (P29274 whole entry): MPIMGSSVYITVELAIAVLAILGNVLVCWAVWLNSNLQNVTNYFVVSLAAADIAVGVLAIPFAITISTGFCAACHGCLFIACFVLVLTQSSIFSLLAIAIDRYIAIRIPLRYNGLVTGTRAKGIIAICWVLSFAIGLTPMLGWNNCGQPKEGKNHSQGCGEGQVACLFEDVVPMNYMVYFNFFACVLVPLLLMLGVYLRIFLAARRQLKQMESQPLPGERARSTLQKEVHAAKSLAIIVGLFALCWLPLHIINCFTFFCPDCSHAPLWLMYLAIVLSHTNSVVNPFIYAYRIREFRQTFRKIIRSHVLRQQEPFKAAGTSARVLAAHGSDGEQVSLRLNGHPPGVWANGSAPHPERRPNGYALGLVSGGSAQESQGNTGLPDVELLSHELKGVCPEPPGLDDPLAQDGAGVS
Experiment: Inhibition of adenosine A2A receptor (unknown origin) at 100 umol/L relative to control
A number alone suffices; assume %.

Known inhibition results, listed for orientation:
COC[C@H]1CCCN1c1cc(NCC(F)(F)F)nc(-n2nc(C)cc2C)n1 :: 115
Cc1cc(C)n(-c2nc(NCC(F)(F)F)cc(-n3cccn3)n2)n1 :: 117
Cc1cc(C)n(-c2nc(Nc3ccccn3)cc(-n3cccn3)n2)n1 :: 117
Cc1cc(C)n(-c2nc(Nc3cnccn3)cc(-n3cccn3)n2)n1 :: 117
Cc1cc(C)n(-c2nc(Nc3ncccn3)cc(-n3cccn3)n2)n1 :: 23

# return recorded inhibition for input Cc1cc(C)n(-c2nc(NCC(F)(F)F)cc(N3CCc4ccccc4C3)n2)n1
64

# return recorded inhibition for input Cc1cc(C)n(-c2nc(Nc3nccs3)cc(N3CCc4ccccc4C3)n2)n1
117

# return recorded inhibition for input COC[C@H]1CCCN1c1cc(Nc2nccs2)nc(-n2nc(C)cc2C)n1
123

# return recorded inhibition for input COCCOc1ccc(N2CCN(CCn3ncc4c3nc(N)n3nc(-c5ccco5)nc43)CC2)cc1 [PRELADENANT]
120

# return recorded inhibition for input COC[C@H]1CCCN1c1cc(Nc2ccccn2)nc(-n2nc(C)cc2C)n1
124

# return recorded inhibition for input Cc1cc(C)n(-c2nc(Nc3ccccn3)cc(N3CCc4ccccc4C3)n2)n1
95

# return recorded inhibition for input Cc1cc(C)n(-c2nc(Nc3cnccn3)cc(N3CCc4ccccc4C3)n2)n1
121
